The reported measurements were obtained from the RNAGym collection of RNA variant scans (doi:10.1073/pnas.2313332121).

B1: TPR t1 (parent)
chain: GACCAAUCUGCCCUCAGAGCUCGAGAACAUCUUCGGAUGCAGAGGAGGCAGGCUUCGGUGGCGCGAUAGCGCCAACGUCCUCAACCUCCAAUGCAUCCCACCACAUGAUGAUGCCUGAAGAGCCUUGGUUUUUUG

Variants of: B1
method-notes: polymerase ribozyme fitness, log enrichment relative to wild type (log ratio); higher = more active; in vitro selection for triplet polymerase activity
Known polymerase ribozyme fitness (log ratio) of a selection of variants
A bare number is all that is needed in reply.

A selection of reference data follows.
C11A A121U : 0.371
G45C C115U : -3.17
C8A C49A G61A : 0.627
A46U G120U G135C : -0.818
A5U C22A U112A : -2.64

Could you share which polymerase ribozyme fitness (log ratio) value was measured for A74G G120A ?
1.08

Could you share which polymerase ribozyme fitness (log ratio) value was measured for G39U A41U A95C G117U ?
-4.57

Could you share which polymerase ribozyme fitness (log ratio) value was measured for C56A C88U C124A U133C ?
2.43

Could you share which polymerase ribozyme fitness (log ratio) value was measured for C12G G39U G60U C80G C123U ?
-4.73

Could you share which polymerase ribozyme fitness (log ratio) value was measured for C72U C89A C104U U125G ?
-1.18

Could you share which polymerase ribozyme fitness (log ratio) value was measured for U9A C13G A16U A41U ?
-1.62
